The following molecules are shown together with reported inhibition values.
Molecular target: Apoptotic protease-activating factor 1 (Homo sapiens)
Assay: blockers of Apaf-1-driven caspase-3 activation – biochemical, DEVD-Rh110 fluorescence, uHTS, primary screen (AID 489030);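 note: plate controls were DMSO wells for no effect and DEVD-CHO caspase inhibitor wells for full effect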
Conditions: reconstituted apoptosome caspase-3 activity, at 20 µM, hits give high values
Among all 330,000 compounds or so, about 2,400 (0.73%) were called active. What follows is part of a selection rich in actives, with near analogues and random picks from the rest.
value-kind: inhibition (%)

[[record]]
molecule = "Cc1cc(=O)cc(C)[nH]1"
measurement = -15

[[record]]
molecule = "O=C(c1snnc1-c1ccccc1)N1CCOCC1"
measurement = -11.7

[[record]]
molecule = "CCN1C(=S)N[C@@H](CCc2ccccc2)[C@H](C(=O)OC)[C@H]1C"
measurement = -4.74

[[record]]
molecule = "CCOC(=O)Cc1cc(=O)[nH]c(/N=C(\\N)Nc2ccc(OC)cc2)n1"
measurement = -3.54

[[record]]
molecule = "COc1ccc(CCNC(=O)CN(c2ccccc2)S(C)(=O)=O)cc1"
measurement = 4.78

[[record]]
molecule = "COc1ccc(C2=NOC3(CC(=O)N(c4ccc(Cl)cc4)C3=O)C2)c(OC)c1 (stereo not given)"
measurement = 5.23

[[record]]
molecule = "S=C(NCc1ccco1)NCc1ccccc1Cl"
measurement = 10.3

[[record]]
molecule = "O=C(CC1N=C2c3ccccc3N=C(SCc3ccccc3Cl)N2C1=O)NCc1ccco1 (stereo not given)"
measurement = 21.1

[[record]]
molecule = "Cc1nn2c(NCCN(C)C)c3c(nc2c1-c1ccccc1)CCC3"
measurement = 1.66

[[record]]
molecule = "O=c1cc(CN2CCN(S(=O)(=O)/C=C/c3ccccc3)CC2)c2ccc(O)cc2o1"
measurement = 21.6

[[record]]
molecule = "CCOC(=O)c1cnc(SC)nc1Sc1ccc(Cl)cc1Cl"
measurement = 14

[[record]]
molecule = "CCOc1ccc2[nH]c(=O)c(C(c3nnnn3CCOC)N3CCOCC3)cc2c1 (stereo not given)"
measurement = -3.2

[[record]]
molecule = "O=S(=O)(c1ccc(Br)cc1)N1CCC(c2nc3ccccc3[nH]2)CC1"
measurement = 6.06

[[record]]
molecule = "COc1ccc(OC)c(C(c2nnnn2C(C)(C)C)N2CCc3ccccc3C2)c1 (stereo not given)"
measurement = 11.5

[[record]]
molecule = "O=C(Nc1cccc(-c2cccc(Cl)c2)c1)C1CCN(C2CCC2)CC1"
measurement = 25.3

[[record]]
molecule = "Cc1ccc(C(C)C)cc1OCC(=O)Nc1ccccc1N1CCCC1"
measurement = 16.1

[[record]]
molecule = "CCN1C(=NCC(C)C)N[C@@H](CCc2ccccc2)[C@H](C(=O)NCC(C)C)[C@H]1C"
measurement = 4.1

[[record]]
molecule = "C=CCNC(=O)c1ccccc1SCc1c(C)noc1C"
measurement = -5.84

[[record]]
molecule = "Cc1ccc(NC(=O)c2oc3ccccc3c2C)c([N+](=O)[O-])c1"
measurement = 4.97

[[record]]
molecule = "CCOC(=O)C1CCN(C(=O)c2cccc(S(=O)(=O)N(CC)c3ccccc3)c2)CC1"
measurement = 45.2

[[record]]
molecule = "O=C(c1ccccc1)c1cccn1CC(=O)N1CCN(c2ccc(F)cc2)CC1"
measurement = 5.66

[[record]]
molecule = "CN(C)c1ccnc(Oc2ccc(F)cc2)c1C#N"
measurement = -5.43

[[record]]
molecule = "OCCn1c(-c2ccccc2)csc1=Nc1ccccc1"
measurement = 16.7

[[record]]
molecule = "C=C(C)CNc1cc(S(=O)(=O)N2CCOCC2)ccc1Oc1ccccc1"
measurement = 24.2

[[record]]
molecule = "COc1ccc(/C=C/c2c(-c3cccc(C)c3)oc3ccc(-c4ccc5c(c4)OCO5)cc23)cc1"
measurement = -2.24

[[record]]
molecule = "CCN(CC(=O)NCc1cccs1)C(=O)c1ccc(OC)c(S(=O)(=O)N2CCOCC2)c1"
measurement = 5.14

[[record]]
molecule = "COCCn1nnnc1C(c1cc2ccc(OC)cc2[nH]c1=O)N1CCc2ccccc2C1 (stereo not given)"
measurement = 56.8

[[record]]
molecule = "COc1cc2ccccc2cc1C(=O)N1CCOCC1"
measurement = -7.91

[[record]]
molecule = "O=C(NCCCNCc1ccccc1)c1ccc(/C=N/O)nc1"
measurement = 6.05

[[record]]
molecule = "O=C(CN1CCN(C2CCCCC2)CC1)Nc1ccccc1N1CCCCC1"
measurement = 6.34

[[record]]
molecule = "CN1CCN(c2ccccc2NC(=O)COc2ccc(C3CCCCC3)cc2)CC1"
measurement = 43.6

[[record]]
molecule = "Cc1ccc(C(=O)N/N=C\\c2cc(Br)c(Br)o2)cn1"
measurement = 75.4

[[record]]
molecule = "COc1ccc(-c2nc(N)sc2C2(O)C(=O)Nc3c(Br)cc(F)cc32)cc1OC (stereo not given)"
measurement = 3.73

[[record]]
molecule = "N=c1ccn(CC(=O)NC(N)=O)c2ccccc12"
measurement = -8.89

[[record]]
molecule = "COc1ccccc1C(=O)NCCC(=O)N(C)Cc1cccnc1"
measurement = -4.28

[[record]]
molecule = "Cc1ccc(C(=O)N/N=C/c2cccc3ccccc23)cn1"
measurement = -7.7

[[record]]
molecule = "Oc1c(C=Nc2cccc3nsnc23)ccc2ccccc12"
measurement = 95.8

[[record]]
molecule = "CN(C(=O)CN1C(=O)CCSc2ccc(S(=O)(=O)N3CCCC3)cc21)c1ccccc1"
measurement = -2.73

[[record]]
molecule = "COc1ccccc1N1CCN(C(=O)CSc2ncnc3c2cnn3-c2ccc(C)c(C)c2)CC1"
measurement = -2.97

[[record]]
molecule = "Clc1ccc(CSc2nnc3c(n2)[nH]c2ccccc23)cc1"
measurement = 11.3

